Please go through the items and note down their Predicted in vivo hepatic clearance, CLH.
protocol description: Metabolic stability, pooled human liver microsome incubations
condition details: pHLM, scaling factor 32 mg microsomal protein per gram liver

Return reported Predicted in vivo hepatic clearance, CLH; argument: COC(=O)[C@H](NC(=O)c1nn(CCCCF)c2ccccc12)C(C)(C)C [(R)-4F-MDMB-BINACA (4)]
6.20 mL/min/kg

Return reported Predicted in vivo hepatic clearance, CLH; argument: COC(=O)[C@@H](NC(=O)c1cn(CCCCCF)c2ccccc12)C(C)(C)C [(S)-5F-MDMB-PICA (3)]
5.75 mL/min/kg

Return reported Predicted in vivo hepatic clearance, CLH; argument: COC(=O)[C@@H](NC(=O)c1nn(CCCCF)c2ccccc12)C(C)(C)C [(S)-4F-MDMB-BINACA (4)]
5.33 mL/min/kg

Return reported Predicted in vivo hepatic clearance, CLH; argument: C=CCCCn1cc(C(=O)N[C@H](C(=O)OC)C(C)(C)C)c2ccccc21 [(S)-MDMB-4en-PICA (12)]
3.88 mL/min/kg

Return reported Predicted in vivo hepatic clearance, CLH; argument: COC(=O)[C@H](NC(=O)c1nn(CCCCCF)c2ccccc12)C(C)(C)C [(R)-5F-MDMB-PINACA (2)]
4.53 ± 0.48 mL/min/kg

Return reported Predicted in vivo hepatic clearance, CLH; argument: C=CCCCn1nc(C(=O)N[C@H](C(=O)OC)C(C)(C)C)c2ccccc21 [(S)-MDMB-4en-PINACA (5)]
1.71 mL/min/kg

----------
System: pooled human cryopreserved hepatocytes (pHHeps)
protocol description: Metabolic stability, pooled human cryopreserved hepatocyte incubations
condition details: pHHeps, 30 min
endpoint label: % parent compound remaining, Average (%)
Record the value in %, omitting the unit from your answer.

Return reported % parent compound remaining, Average; argument: COC(=O)[C@H](NC(=O)c1nn(CCCCF)c2ccccc12)C(C)(C)C [(R)-4F-MDMB-BINACA (4)]
65.7

Return reported % parent compound remaining, Average; argument: COC(=O)[C@H](NC(=O)c1nn(Cc2ccc(F)cc2)c2ccccc12)C(C)(C)C [(R)-MDMB-FUBINACA (6)]
53.1

Return reported % parent compound remaining, Average; argument: C=CCCCn1nc(C(=O)N[C@H](C(=O)OC)C(C)(C)C)c2ccccc21 [(S)-MDMB-4en-PINACA (5)]
17.1

Return reported % parent compound remaining, Average; argument: COC(=O)[C@@H](NC(=O)c1nn(Cc2ccc(F)cc2)c2ccccc12)C(C)C [(S)-AMB-FUBINACA (1)]
1.4

----------
Test system: pooled human cryopreserved hepatocytes (pHHeps)
protocol description: Metabolic stability, pooled human cryopreserved hepatocyte incubations
condition details: pHHeps 0.25 million cells mL^−1, 0.5 µM, 37 °C, n ≥ 3 ± SD
endpoint label: T1/2 (min)
Record the value in min, omitting the unit from your answer.

Return reported T1/2; argument: C=CCCCn1cc(C(=O)N[C@@H](C(=O)OC)C(C)(C)C)c2ccccc21 [(R)-MDMB-4en-PICA (12)]
44

Return reported T1/2; argument: CC(C)[C@@H](NC(=O)c1nn(CC2CCCCC2)c2ccccc12)C(N)=O [(R)-AB-[…] (11)]
38

Return reported T1/2; argument: COC(=O)[C@H](NC(=O)c1nn(CCCCF)c2ccccc12)C(C)(C)C [(R)-4F-MDMB-BINACA (4)]
58

Return reported T1/2; argument: COC(=O)[C@H](NC(=O)c1cn(CCCCCF)c2ccccc12)C(C)(C)C [(R)-5F-MDMB-PICA (3)]
54
